The reported numbers originate from PubChem BioAssay (NCI).

# Tested on: UO-31 renal
# assay-method-text: NCI-60 one-dose screen, 48 h
# experimental-setup: 10 µM
About 83,000 compounds went through this panel and 20% of them were active in at least one assay; those are over-represented in the sample as a whole. Calls of active or inactive are those of the source. How the source made its calls: active means growth percent below 10; inactive means the rest.
Entry note: the call must match one of active, inactive

Some entries whose results are on file:
>  <compound>
Cc1ccccc1[P+](Cc1ccccc1)(c1ccccc1)c1ccccc1

>  <study-system>
UO-31 renal

>  <answer-label>
inactive

$$$$
>  <compound>
N#CN1CC[C@H](C(=O)Nc2ncc(-c3ccccc3)s2)C1

>  <study-system>
UO-31 renal

>  <answer-label>
active

$$$$
>  <compound>
COc1cc(/C=C/C(=O)c2cc(-c3ccc(C(F)(F)F)cc3)ccc2O)cc(OC)c1OC

>  <study-system>
UO-31 renal

>  <answer-label>
inactive

$$$$
>  <compound>
COc1ccc(-c2n/c(=C\c3c(O)[nH]c4ccccc34)cc3c2=Nc2ccccc2-3)cc1

>  <study-system>
UO-31 renal

>  <answer-label>
inactive

$$$$
>  <compound>
Cc1cc(C(C)(C)CC(C)(C)C)ccc1OCCOCC[N+](C)(C)Cc1ccccc1

>  <study-system>
UO-31 renal

>  <answer-label>
inactive

$$$$

# lookup: test call for CC(C)=C1CCC(C)C/C1=N\N=C(N)N (configuration not stated)
inactive

What is the recorded call for this compound in the test? `COc1ccc(Cn2cc3c(c2-c2ccccc2)CC(C)(C)c2cnoc2-3)cc1`
inactive

Answer briefly: the call reported for `O=[N+]([O-])c1ccc2c(c1)Cc1cc(I)ccc1-2` in this assay.
inactive

For this compound, state the assay outcome: `COc1ccc(-c2ccccc2)cc1C(=O)c1ccc(-c2ccccc2)cc1`
inactive

Please state the recorded outcome for this compound: `COc1cc(-c2cc(-c3cc(OC)c(OC)c(OC)c3)nc3nc(N)[nH]c(=O)c23)ccc1Oc1ccnc2cc(Cl)ccc12`
inactive

In this assay, the call recorded for `CCOC(=O)c1cc2c(n1Cc1ccccc1)-c1oncc1CC2` was what?
inactive

Tell me the assay call for `O=[N+]([O-])c1ccc(Br)o1` please.
inactive

I'd appreciate the recorded outcome for `COc1ccc2c(c1)/C(=C/c1cc(OC)c(OC)c(OC)c1)C(=O)N2C` from this test.
inactive

Check the results log: what was the call for `O=S(=O)(NCl)c1ccccc1` ?
inactive

Any idea what this test logged for `COCCOC(=O)NC(=O)Nc1ccc(C(=O)c2ccc(Cl)cc2)cc1` ?
inactive

Can you look up the reported call for `N#Cc1c2c([nH]c(=O)c1C(N)=O)CCCCC2` for me?
inactive

I would be grateful if you could indicate the recorded call for `CC1(C)Cc2c(cn(Cc3ccccc3)c2-c2ccccc2)-c2oncc21` .
inactive

Please indicate how the test categorized `CC(=O)N(O)c1ccc(/C=C/c2ccccc2)cc1` .
active

====

# Test system: HCC-2998 colon
# assay-method-text: NCI-60 one-dose screen, 48 h (100 = growth as untreated, 0 = no growth, -100 = all killed)
# experimental-setup: 10 µM
Compounds without any hit were thinned out: in the full panel of roughly 83,000, 20% have a hit.
Classify by growth. Ranges: A (below 20%), B (20% to below 90%), C (90% or more)

>  <molecule>
COc1cc(CSc2nc3ccc(Cl)cc3c(=O)n2-c2ccccc2)cc(OC)c1OC

>  <answer-label>
B

$$$$
>  <molecule>
N#CC1C=Cc2c(ccc3ccccc23)N1C(=O)c1ccccc1 (configuration not stated)

>  <answer-label>
A

$$$$
>  <molecule>
Nc1cc(O)cc(O)c1

>  <answer-label>
C

$$$$
>  <molecule>
O=NN(CCCl)C(=O)Nc1ccc(NC(=O)N(CCCl)N=O)cc1

>  <answer-label>
C

$$$$
>  <molecule>
CC(C)c1[nH]nc2c(NCc3ccc(-c4ccccn4)cc3)nc(SCCN)nc12

>  <answer-label>
A

$$$$

In plain terms, what class is `CC(=O)c1ccc(NCn2nc(-c3ccc(Cl)cc3)oc2=S)cc1` ?
C

Hi, small favor: classify `COc1cc(OC)cc(-c2n/c(=C\c3c(O)[nH]c4ccc(OC)cc34)cc3c2=Nc2ccccc2-3)c1` by its growth when you get a moment.
B

Categorize the following entry: `N#CN1CC[C@H](C(=O)Nc2ncc(-c3ccncc3)s2)C1`
A

Entry `CCCc1c(C)nc2scc(-c3ccc(Cl)cc3)n2c1=O` belongs to which category?
C

Hi, small favor: classify `O=C(COc1ccc(-c2nc3ccccc3[nH]2)cc1)N=Nc1c(O)[nH]c2ccccc12` by its growth when you get a moment.
C

Band for `CC(=O)n1nc(C(=O)OC(C)(C)C)c2cc(F)c(F)cc21` ?
C

Hi, small favor: classify `COc1ccc2c(=O)cc(C(Cl)(Cl)Cl)oc2c1` by its growth when you get a moment.
A

Hello team, could you let me know which band the following molecule falls into: `FC(F)(F)c1ccc(-c2nc(-c3nc4cc(Cl)c(Cl)cc4[nH]3)c3ccccn23)cc1`
B

====

# System: 786-0 renal
# assay-method-text: NCI-60 one-dose screen, 48 h (100 = growth as untreated, 0 = no growth, -100 = all killed)
# experimental-setup: 10 µM
# Procedure: Cells are grown in 96 well plates and exposed to the test compound for 48 hours. Compounds are tested at a single concentration, which is 10^-5 M for most compounds. The reported endpoint is percent growth (GI% or GIPRCNT), where numbers from 0 - 100% represent growth inhibition, and numbers from -100% - 0 represent cell death. For example, a value of 40 represents 60% growth inhibition. A value of 0 means no net growth occurred over the course of the experiment. […]
About 83,000 compounds went through this panel and 20% of them were active in at least one assay; those are over-represented in the sample as a whole.
outcome-measure: growth (%)
Report as a plain number; the unit % is understood.

>  <compound>
CNCCCNCCCN1C(=O)c2ccc3c4c(ccc(c24)C1=O)C(=O)N(CCCNCc1ccccc1OC)C3=O

>  <growth (%)>
10.4

$$$$
>  <compound>
COc1ccc2oc(=O)cc(C(c3ccc[nH]3)c3ccc[nH]3)c2c1

>  <growth (%)>
17.2

$$$$
>  <compound>
Oc1ccc(/C=N\Nc2ccccn2)c(O)c1

>  <growth (%)>
-13.2

$$$$

Look at this compound and give its reported growth. CN(C)c1ccc2c(c1)OC(N)=C(C#N)C2c1ccc2c(c1)CCCN2C (stereo not drawn)
43.7

Which growth is listed for `Nc1ncncc1-c1ccc(F)cc1` ?
104

What value of growth has been recorded for this entry: CCCCN(CCCC)c1ccc(C(=NC(C)CCCN(CC)CC)c2ccc(N(C)C)cc2)cc1 (stereo not drawn)
-86.4

Entry under review: `COc1cc(Cn2c(-c3ccccc3)c(Cl)c3c2-c2oncc2CC3)cc(OC)c1` . Reported growth?
74.7

Name the recorded growth for `CCNC1(NC#N)CCCCC1` .
100

====

# System: KM12 colon
# assay-method-text: NCI-60 one-dose screen, 48 h (100 = growth as untreated, 0 = no growth, -100 = all killed)
# experimental-setup: 10 µM
About 83,000 compounds went through this panel and 20% of them were active in at least one assay; those are over-represented in the sample as a whole.
Criterion: growth strictly less than 70%. Met: True. Not met: False.

See these solved cases before continuing.
>  <compound>
O=C(CCc1ccccc1)N1CCN(C(=O)CCc2ccccc2)CC1

>  <study-system>
KM12 colon

>  <answer-label>
False

$$$$
>  <compound>
CN(C)CCCN(Cc1ccccc1O)C(=S)Nc1ccc(Cl)cc1

>  <study-system>
KM12 colon

>  <answer-label>
False

$$$$
>  <compound>
C=CCN1C(=O)/C(=C\c2ccc3c(c2)CCC3)SC1=S

>  <study-system>
KM12 colon

>  <answer-label>
False

$$$$

# strict comparison: is reported growth < 70%? input = `COc1cc(CSc2nc3ccc(Cl)cc3c(=O)n2Cc2ccccc2)cc(OC)c1OC`
True

hey, is growth for `O=S(=O)(O)C1(O)CCCCC1` lower than 70% or not?
False

====

# System: K-562 leukemia
# assay-method-text: NCI-60 one-dose screen, 48 h
# experimental-setup: 10 µM
About 83,000 compounds went through this panel and 20% of them were active in at least one assay; those are over-represented in the sample as a whole. The source made the active and inactive calls. Rule for the calls: active = growth percent below 10; inactive = the rest.
Allowed answers: Y = active, N = inactive

>  <compound>
COc1ccc(-c2nnc(COc3ccc(NC(=O)Nc4cccc(C(F)(F)F)c4)cc3F)o2)cc1

>  <study-system>
K-562 leukemia

>  <answer-label>
N

$$$$
>  <compound>
CC1=CC2OC34COC3CC(OC(=O)C(F)(F)F)C4(C)C2(C)CC1 (stereo unspecified)

>  <study-system>
K-562 leukemia

>  <answer-label>
N

$$$$
>  <compound>
CC[C@@]1(C(N)=O)CC2C=CC1C2 (stereo partly specified)

>  <study-system>
K-562 leukemia

>  <answer-label>
N

$$$$
>  <compound>
Nc1c(C(=O)NC2CCCCC2)sc2nc3c(cc12)C(=O)CCC3

>  <study-system>
K-562 leukemia

>  <answer-label>
N

$$$$
>  <compound>
COc1cc(C2=Nc3c/c(=C\c4c(O)[nH]c5ccc(Cl)cc45)ccc3=N2)cc(OC)c1OC

>  <study-system>
K-562 leukemia

>  <answer-label>
N

$$$$
>  <compound>
Cn1c(=O)c2[nH]c(C(O)c3ccc(Cl)cc3)nc2n(C)c1=O (stereo unspecified)

>  <study-system>
K-562 leukemia

>  <answer-label>
N

$$$$

Per the records of this test, what outcome belongs to `N#CN1CC[C@H](C(=O)Nc2ncc(-c3ccncc3)s2)C1` ?
Y
